Below, each entry is listed alongside its reported EC50.
Target: REV-ERBα LBD (human; residues 281-614 Δ324-422) (Homo sapiens, UniProt P20393, DEL324-422)
Construct: 6×Histag-REV-ERBα LBD (human; residues 281-614 Δ324-422); made in house; host or cells: Escherichia coli
Sequence (P20393 with tags, fused parts or gaps DEL324-422): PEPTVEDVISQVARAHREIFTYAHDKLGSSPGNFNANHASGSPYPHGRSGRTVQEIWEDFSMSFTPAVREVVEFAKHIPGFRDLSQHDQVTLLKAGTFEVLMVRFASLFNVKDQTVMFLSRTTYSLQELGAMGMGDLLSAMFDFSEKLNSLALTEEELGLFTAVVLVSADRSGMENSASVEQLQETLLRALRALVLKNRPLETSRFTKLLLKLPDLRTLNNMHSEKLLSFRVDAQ
Sequence (Q9Y618 2335-2356 partner limits assumed): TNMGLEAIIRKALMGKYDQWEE
Experiment: TR-FRET corepressor interaction assay (REV-ERBα LBD, FITC-SMRT peptide)
Type: biochemical
Details: FITC-SMRT peptide, read-out: REVERBα agonism (EC50 class, FRET assay)

Example results:
Recall the recorded EC50 for CC(C)Cn1cc([C@H](NS(=O)(=O)C2CCC2)C(F)(F)F)c2ccc(-c3ccccc3C(F)(F)F)cc21 with REV-ERBα LBD (human; residues 281-614 Δ324-422) (Homo sapiens, UniProt P20393, DEL324-422) and state it.
< 0.5 µM

Recall the recorded EC50 for CC(C)(C)Cn1cc(CCNS(=O)(=O)C2CC2)c2ccc(-c3ccc(C(F)(F)F)cc3C(F)(F)F)cc21 with REV-ERBα LBD (human; residues 281-614 Δ324-422) (Homo sapiens, UniProt P20393, DEL324-422) and state it.
0.5 to 3 µM

Recall the recorded EC50 for CC(C)(C)Cn1cc([C@H](NS(=O)(=O)C2CC2)C(F)F)c2cc(F)c(-c3ccccc3C(F)(F)F)cc21 with REV-ERBα LBD (human; residues 281-614 Δ324-422) (Homo sapiens, UniProt P20393, DEL324-422) and state it.
< 0.5 µM

Now look at this one.
Recall the recorded EC50 for CC(C)(C)Cn1cc([C@@H](CF)NS(=O)(=O)C2CCC2)c2ccc(-c3ccccc3C(F)(F)F)cc21 with REV-ERBα LBD (human; residues 281-614 Δ324-422) (Homo sapiens, UniProt P20393, DEL324-422) and state it.
< 0.5 µM

###

Below, each entry is listed alongside its reported pEC50.
Molecular target: REV-ERBα LBD (human; residues 281-614 Δ324-422) (Homo sapiens, UniProt P20393, DEL324-422)
Construct: 6×Histag-REV-ERBα LBD (human; residues 281-614 Δ324-422); made in house; host or cells: Escherichia coli
Experiment: TR-FRET corepressor interaction assay (REV-ERBα LBD, FITC-SMRT peptide)
Assay type: biochemical
Conditions: FITC-SMRT peptide, read-out: REVERBα agonism (EC50 class, FRET assay)
pEC50: −log10 of the molar value.

Which pEC50 value is on record for CC(C)(C)Cn1cc([C@H](NS(=O)(=O)C2CCC2(F)F)C(F)(F)F)c2ccc(-c3ccccc3C(F)(F)F)cc21 (stereo partly shown) ?
< 5.52

Which pEC50 value is on record for CC(C)(C)Cn1cc(CCNS(=O)(=O)C2CC2)c2ccc(-c3ccc(Cl)cc3C#N)cc21 ?
> 6.30

Which pEC50 value is on record for CC(C)(C)Cn1cc([C@H](NS(=O)(=O)C2CCC2)C(F)(F)F)c2cc(F)c(-c3ccccc3C#N)cc21 ?
> 6.30

Now look at this one.
Which pEC50 value is on record for N#Cc1cccc(F)c1-c1ccc2c([C@H](NS(=O)(=O)C3CCC3)C(F)(F)F)cn(C3CCC3)c2c1 ?
> 6.30

# credit: patent US20230339886A1
